Values were extracted from patent US8569267B2.

# STUDY_TARGET: human cloned 5-HT2C receptor, expressed in CHO cells (Homo sapiens)
# Construct: expressed in transfected cells; host or cells: CHO cells
# Sequence (P28335 33-458): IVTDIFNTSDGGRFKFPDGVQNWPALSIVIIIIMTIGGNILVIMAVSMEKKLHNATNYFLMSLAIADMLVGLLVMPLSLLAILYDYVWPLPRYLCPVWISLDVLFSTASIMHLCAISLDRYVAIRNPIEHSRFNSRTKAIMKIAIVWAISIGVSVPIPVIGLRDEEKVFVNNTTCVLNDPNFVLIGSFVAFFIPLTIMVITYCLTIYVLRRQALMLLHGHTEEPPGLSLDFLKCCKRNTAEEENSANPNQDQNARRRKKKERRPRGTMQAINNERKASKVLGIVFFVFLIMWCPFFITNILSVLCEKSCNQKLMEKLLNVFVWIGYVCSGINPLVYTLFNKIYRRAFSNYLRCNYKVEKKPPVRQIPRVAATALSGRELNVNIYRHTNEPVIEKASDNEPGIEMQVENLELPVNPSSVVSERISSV
# PROTOCOL_NOTES: In vitro binding affinity for 5-HT2C receptor ([3H]mesulergine radioligand binding)
# TEST_CONDITIONS: human cloned 5-HT2C receptor, read-out: 5-HT2C pIC50 (converted)
# Protocol: In Vitro Binding Affinity for 5-HT2A and 5-HT2C Receptors The interaction of the compounds of Formula (I) with 5-HT2A and 5-HT2C receptors was assessed in in vitro radioligand binding experiments. […] When equilibrium of binding is reached, the receptor bound radioactivity is separated from the non-bound radioactivity, and the receptor bound activity is counted. The interaction of the test compounds with the receptors is assessed in competition binding experiments. […]
Threshold 10 nM. IC50 below it: 1.0. IC50 at it or above: 0.0.

Qu. Determine whether this compound shows IC50 lower than 10 nM (ties excluded): CC(C)c1ccccc1NC(=O)C1CCN(CC2CC3c4ccccc4Cc4ccc(F)cc4C3O2)CC1 (centres unmarked) [Compound 185]
Ans. 0.0

Qu. Determine whether this compound shows IC50 lower than 10 nM (ties excluded): O=C(NCc1cccc(I)c1)C1CCN(CC2CC3c4ccccc4Cc4ccc(F)cc4C3O2)CC1 (centres unmarked) [Compound 196]
Ans. 1.0

Qu. Determine whether this compound shows IC50 lower than 10 nM (ties excluded): Fc1ccc2c(c1)C1OC(CN3CCN(CC=Cc4ccccc4)CC3)CC1c1ccccc1C2 (centres unmarked) [Compound 48]
Ans. 0.0

Qu. Determine whether this compound shows IC50 lower than 10 nM (ties excluded): N#CCCC1CCN(CC2CC3c4ccccc4Cc4ccc(F)cc4C3O2)CC1 (centres unmarked) [Compound 170]
Ans. 1.0

Qu. Determine whether this compound shows IC50 lower than 10 nM (ties excluded): OCC1CCCCN1CC1CC2c3ccccc3Cc3ccc(F)cc3C2O1 (mixture of isomers) [Compound 146]
Ans. 0.0

Qu. Determine whether this compound shows IC50 lower than 10 nM (ties excluded): O=C(Nc1cccc2cnccc12)C1CCN(CC2CC3c4ccccc4Cc4ccc(F)cc4C3O2)CC1 (centres unmarked) [Compound 192]
Ans. 1.0

Qu. Determine whether this compound shows IC50 lower than 10 nM (ties excluded): CSCCNC(=O)N1CCN(CC2CC3c4ccccc4Cc4ccc(F)cc4C3O2)CC1 (centres unmarked) [Compound 87]
Ans. 1.0

Qu. Determine whether this compound shows IC50 lower than 10 nM (ties excluded): CCOC(=O)NC1CCN(CC2CC3c4ccccc4Cc4ccc(F)cc4C3O2)CC1 (centres unmarked) [Compound 211]
Ans. 1.0

Qu. Determine whether this compound shows IC50 lower than 10 nM (ties excluded): O=[N+]([O-])c1ccc(CN2CCN(CC3CC4c5ccccc5Cc5ccc(F)cc5C4O3)CC2)cc1 (centres unmarked) [Compound 73]
Ans. 0.0

Qu. Determine whether this compound shows IC50 lower than 10 nM (ties excluded): CCOC(=O)CNC(=O)NC1CCN(CC2CC3c4ccccc4Cc4ccc(F)cc4C3O2)CC1 (centres unmarked) [Compound 242]
Ans. 1.0

Qu. Determine whether this compound shows IC50 lower than 10 nM (ties excluded): O=C(C1CCCO1)N1CCN(CC2CC3c4ccccc4Cc4ccc(F)cc4C3O2)CC1 (mixture of isomers) [Compound 80]
Ans. 0.0

Qu. Determine whether this compound shows IC50 lower than 10 nM (ties excluded): Fc1ccc2c(c1)C1OC(CN3CCC(Oc4cccc(C(F)(F)F)c4)C3)CC1c1ccccc1C2 (mixture of isomers) [Compound 37]
Ans. 1.0

Qu. Determine whether this compound shows IC50 lower than 10 nM (ties excluded): Fc1ccc2c(c1)C1OC(CN3CCN(c4ccc(C(F)(F)F)cn4)CC3)CC1c1ccccc1C2 (centres unmarked) [Compound 120]
Ans. 0.0

Qu. Determine whether this compound shows IC50 lower than 10 nM (ties excluded): CC(=O)OC1CCN(C[C@H]2C[C@@H]3c4ccccc4Cc4ccc(F)cc4[C@@H]3O2)CC1 [Compound 166]
Ans. 1.0

Qu. Determine whether this compound shows IC50 lower than 10 nM (ties excluded): CCCCCC(=Cc1ccccc1)CN1CCN(CC2CC3c4ccccc4Cc4ccc(F)cc4C3O2)CC1 (centres unmarked) [Compound 50]
Ans. 0.0

Qu. Determine whether this compound shows IC50 lower than 10 nM (ties excluded): N#Cc1cccc(CN2CCN(CC3CC4c5ccccc5Cc5ccc(F)cc5C4O3)CC2)c1 (centres unmarked) [Compound 70]
Ans. 0.0

Qu. Determine whether this compound shows IC50 lower than 10 nM (ties excluded): CCCCCCCCCCNC(=O)C1CCN(C[C@H]2C[C@@H]3c4ccccc4Cc4ccc(F)cc4[C@@H]3O2)CC1 [Compound 178]
Ans. 1.0

Qu. Determine whether this compound shows IC50 lower than 10 nM (ties excluded): O=S(=O)(c1ccccc1)n1cccc1CN1CCN(CC2CC3c4ccccc4Cc4ccc(F)cc4C3O2)CC1 (centres unmarked) [Compound 68]
Ans. 0.0

Qu. Determine whether this compound shows IC50 lower than 10 nM (ties excluded): O=C(NC1CCN(CC2CC3c4ccccc4Cc4ccc(F)cc4C3O2)CC1)c1ccccc1Cl (centres unmarked) [Compound 227]
Ans. 0.0
